experiment: chemical genetic growth profiling, strain panel (AID 1159580);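 further: tested at 20 µM; growth read once vehicle control cultures reached saturation at 30 °C; 1 = growth at the plate median or of vehicle wells; lower values mean less growth of the strain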; settings: S. cerevisiae deletion strains, growth OD, locus YJR043C, strain POL32, hits give low values
Among all 5,500 compounds or so, about 2,000 (36%) were called active. About 18% were inconclusive and are not listed. This is one part of the list.
normalized growth listing for selected compounds.

- compound: "CN(C)CCC[C@@]1(c2ccc(F)cc2)OCc2cc(C#N)ccc21"
  normalized growth: "1.01 (inactive)"
- compound: "O=C1C=C(O)c2ccccc2C1=O"
  normalized growth: "1.01 (inactive)"
- compound: "N/C(=N/O)c1cnccc1C(F)(F)F"
  normalized growth: "0.993 (inactive)"
- compound: "Cn1c(=O)c2c(ncn2C)n(C)c1=O"
  normalized growth: "1.02 (inactive)"
- compound: "COc1cccc(C2SCc3cc(C)c(C)cc3CS2)c1O"
  normalized growth: "0.972 (inactive)"
- compound: "CCOC(=O)c1ccc(Oc2ncc(C(F)(F)F)cc2Cl)cc1"
  normalized growth: "0.98 (inactive)"
- compound: "C/C(=N/O)c1ccc2c(c1)C(C)(C)CCC2(C)C"
  normalized growth: "0.989 (inactive)"
- compound: "CC(C)[C@@H]1CC[C@@H](C)CC1=O"
  normalized growth: "1.02 (inactive)"
- compound: "COc1ccc(/C=C/c2cc(O)cc(O[C@@H]3O[C@H](CO)[C@@H](O)[C@H](O)[C@H]3O)c2)cc1"
  normalized growth: "0.993 (inactive)"
- compound: "C=CC1CN2CCC1CC2C(OC(C)=O)c1ccnc2ccc(OC)cc12 (stereo unspecified)"
  normalized growth: "1 (inactive)"
- compound: "COC(=O)C[C@H]1C(C)(C)[C@@H](OC(C)=O)[C@@H]2CC3=C4CC(=O)O[C@@H](c5ccoc5)[C@]4(C)CCC3[C@@]1(C)C2=O (stereo partly specified)"
  normalized growth: "0.987 (inactive)"

###

Entries and their measured normalized growth follow.
experiment: chemical genetic growth profiling, strain panel (AID 1159580);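 further: tested at 20 µM; growth read once vehicle control cultures reached saturation at 30 °C; 1 = growth at the plate median or of vehicle wells; lower values mean less growth of the strain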; conditions: S. cerevisiae deletion strains, growth OD, locus YDL040C, strain nat1, hits give low values
In all, about 5,500 compounds went through this assay and about 2,000 (36%) were called active. Not shown: some 18% with an inconclusive outcome. The list shows a part of the results.

- molecule: "O=C(O)CC[N+](=O)[O-]"
  normalized growth: 0.988
- molecule: "CN1CCN(C2=Nc3cc(Cl)ccc3Nc3ccccc32)CC1"
  normalized growth: 1
- molecule: "O=C1C=CC(=O)c2c(O)c(Cl)c(Cl)c(O)c21"
  normalized growth: 0.0677
- molecule: "O=c1c(O)c(-c2ccccc2)oc2cccc(O)c12"
  normalized growth: 0.953
- molecule: "CC(C)c1cc2c(c(O)c1O)[C@@]1(C(=O)O)CCCC(C)(C)C1CC2 (stereo partly drawn)"
  normalized growth: 0.99
- molecule: "COc1ccc(CC(=O)c2ccc(O)cc2O)cc1"
  normalized growth: 0.977
- molecule: "CCCN(CCC)c1c([N+](=O)[O-])cc(C(F)(F)F)cc1[N+](=O)[O-]"
  normalized growth: 1
- molecule: "O=C(O)[C@H]1/C(=C/CO)O[C@@H]2CC(=O)N21"
  normalized growth: 0.982
- molecule: "CC1=C(C(=O)O)N2C(=O)[C@@H](NC(=O)[C@@H](N)c3ccc(O)cc3)[C@H]2SC1"
  normalized growth: 1.02
- molecule: "CC(=O)O[C@H]1CC2CCC3C(CC[C@@]4(C)C3C[C@H]([N+]3(C)CCCCC3)[C@@H]4OC(C)=O)[C@@]2(C)C[C@@H]1N1CCCCC1 (stereo partly drawn)"
  normalized growth: 1.01
- molecule: "O=C(CCc1ccc(O)cc1)c1c(O)cc(O)cc1O"
  normalized growth: 0.997
- molecule: "COC(=O)CC1C(C)(C(=O)c2ccoc2)CC2OCC34C(CC(=O)OC)C5(C)CC36OC3(C)OC1(C(OC(C)=O)C6(OC(C)=O)C5OC(=O)C(C)C)C24O3 (stereo not drawn)"
  normalized growth: 0.986
- molecule: "O=c1c(O)c(-c2ccccc2)oc2ccccc12"
  normalized growth: 0.794
- molecule: "NC(=NCCCCCCN=C(N)N=C(N)Nc1ccc(Cl)cc1)N=C(N)Nc1ccc(Cl)cc1"
  normalized growth: 0.0593
- molecule: "CNC(=O)Oc1ccccc1OC(C)C"
  normalized growth: 0.979
- molecule: "CC(=O)CCCCn1c(=O)c2c(ncn2C)n(C)c1=O"
  normalized growth: 1.01
- molecule: "O=c1c(O)c(-c2ccc(O)cc2)oc2ccccc12"
  normalized growth: 0.934
- molecule: "O=C(c1ccccc1)c1ccc2n1CCC2C(=O)O (stereo not drawn)"
  normalized growth: 0.997
- molecule: "Cn1cnc2c1c(=O)[nH]c(=O)n2C"
  normalized growth: 0.992
- molecule: "CN1CCC[C@H]1c1cccnc1"
  normalized growth: 1.02
- molecule: "O=C(/C=C/c1ccc(O)cc1)c1ccccc1O"
  normalized growth: 0.683
- molecule: "CC1(C)CC23C(=O)CCC(O)C2(C)CCC13 (stereo not drawn)"
  normalized growth: 0.991
- molecule: "O=C1C=C(O)c2ccccc2C1=O"
  normalized growth: 0.966
